Target chain: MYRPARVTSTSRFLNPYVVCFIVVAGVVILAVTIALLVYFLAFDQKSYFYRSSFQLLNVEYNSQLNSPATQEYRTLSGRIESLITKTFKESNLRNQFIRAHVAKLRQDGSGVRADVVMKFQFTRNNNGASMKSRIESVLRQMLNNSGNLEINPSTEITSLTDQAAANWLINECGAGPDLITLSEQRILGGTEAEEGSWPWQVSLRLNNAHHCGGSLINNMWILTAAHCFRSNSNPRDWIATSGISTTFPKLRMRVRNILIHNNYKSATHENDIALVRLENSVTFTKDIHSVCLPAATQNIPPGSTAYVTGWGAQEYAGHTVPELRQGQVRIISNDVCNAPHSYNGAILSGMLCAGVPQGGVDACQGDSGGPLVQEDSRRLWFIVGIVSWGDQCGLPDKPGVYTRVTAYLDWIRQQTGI
value type: Ki

Quickly give me recorded Ki for C[C@H](NC(=O)[C@H](CCC(N)=O)NC(=O)[C@@H](N)CCCNC(=N)N)C(=O)N[C@@H](CCCNC(=N)N)C(=O)c1nc2ccccc2s1
8.4 nM

###

measured on: Suppressor of tumorigenicity 14 protein (Homo sapiens)
Sequence (Q9Y5Y6 whole entry): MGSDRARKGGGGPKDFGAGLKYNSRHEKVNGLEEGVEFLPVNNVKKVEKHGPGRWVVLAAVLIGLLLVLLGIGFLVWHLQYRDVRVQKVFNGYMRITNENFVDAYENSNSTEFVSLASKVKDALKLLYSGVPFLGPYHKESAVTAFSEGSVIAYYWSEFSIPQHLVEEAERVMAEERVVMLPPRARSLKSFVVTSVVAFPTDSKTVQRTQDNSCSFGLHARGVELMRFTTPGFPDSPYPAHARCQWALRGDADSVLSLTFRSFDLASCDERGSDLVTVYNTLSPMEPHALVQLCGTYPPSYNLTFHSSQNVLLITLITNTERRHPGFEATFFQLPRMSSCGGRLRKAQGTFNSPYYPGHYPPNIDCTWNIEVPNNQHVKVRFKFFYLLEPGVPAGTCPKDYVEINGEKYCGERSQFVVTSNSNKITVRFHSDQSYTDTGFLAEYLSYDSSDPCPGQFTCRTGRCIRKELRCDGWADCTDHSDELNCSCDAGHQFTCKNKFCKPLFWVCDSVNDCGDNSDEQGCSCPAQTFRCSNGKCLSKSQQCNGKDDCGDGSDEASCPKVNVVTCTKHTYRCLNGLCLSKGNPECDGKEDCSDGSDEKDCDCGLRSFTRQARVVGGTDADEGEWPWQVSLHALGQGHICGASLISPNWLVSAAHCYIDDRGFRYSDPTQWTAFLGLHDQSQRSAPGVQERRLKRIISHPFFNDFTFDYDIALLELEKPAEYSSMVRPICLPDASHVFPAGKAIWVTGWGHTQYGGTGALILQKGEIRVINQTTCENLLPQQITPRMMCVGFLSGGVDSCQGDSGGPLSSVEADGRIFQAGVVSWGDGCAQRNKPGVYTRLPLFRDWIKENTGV
test name: Mixed inhibition of human matriptase expressed in Drosophila melanogaster S2 cells using Boc-QAR-AMC as substrate by fluorimetric analysis
// values below are reported pKi
pKi is defined as minus the log10 of a concentration measured in mol/L.

molecule | endpoint value
N=C(N)NCCC[C@H](N)C(=O)c1nc2ccccc2s1 | 6.34

# evaluate next
Quickly give me recorded pKi for C[C@H](NC(=O)[C@H](CCC(N)=O)NC(=O)[C@@H](N)CCCNC(=N)N)C(=O)N[C@@H](CCCNC(=N)N)C(O)c1nc2ccccc2s1 (mixture of isomers)
5.21

Entry source: ChEMBL document CHEMBL2086329
